test system: T1, TauC3 (C-terminally truncated tau fragment ending at aspartate 421 of htau40) (human, UniProt P10636 1-738)
T1 construct: Generated and purified by Genscript; also called Human TauC3; recombinant TauC3 protein
T1 sequence (P10636 other isoform, or with tags, fused parts or gaps): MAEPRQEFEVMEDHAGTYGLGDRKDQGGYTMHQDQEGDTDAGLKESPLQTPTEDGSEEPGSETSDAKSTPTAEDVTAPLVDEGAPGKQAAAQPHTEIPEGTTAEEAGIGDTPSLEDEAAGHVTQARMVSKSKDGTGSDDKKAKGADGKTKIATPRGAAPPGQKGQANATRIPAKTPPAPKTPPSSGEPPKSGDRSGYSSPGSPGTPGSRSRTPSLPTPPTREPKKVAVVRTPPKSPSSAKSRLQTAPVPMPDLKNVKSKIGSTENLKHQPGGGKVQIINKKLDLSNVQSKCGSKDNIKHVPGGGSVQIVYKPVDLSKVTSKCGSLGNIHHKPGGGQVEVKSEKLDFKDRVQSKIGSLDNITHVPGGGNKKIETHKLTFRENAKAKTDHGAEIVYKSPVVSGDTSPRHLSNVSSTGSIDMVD
experiment notes: binding ELISA on coated TauC3, OD650; right table (HM variants)
endpoint name: pEC50
One number for each entry, as −log10 of the molar value.

Form field: reported pEC50 of Tau01 HCKG (antibody, V domains shown, human IgG4 kappa (HuG4K)) VH: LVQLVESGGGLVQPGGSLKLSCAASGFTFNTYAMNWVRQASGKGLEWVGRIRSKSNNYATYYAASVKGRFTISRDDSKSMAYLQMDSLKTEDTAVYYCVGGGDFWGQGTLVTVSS VL: DIQMTQSPSSLSASVGDRVTITCRASQEISVYLGWYQQKPGKAPKRLIYGAFTLQSGVPSRFSGSRSGTEFTLTISSLQPEDFATYYCLQYVRYPWTFGGGTKVEIK 9.24
